The measured values listed here are drawn from the RNAGym collection of RNA variant scans (doi:10.1002/anie.201605470).

B1: Osa-1-4 twister ribozyme (parent)
chain: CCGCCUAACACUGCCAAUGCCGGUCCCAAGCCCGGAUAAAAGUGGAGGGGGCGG

Variants of: B1
Assay: self-cleavage, relative activity (ratio to wild type); higher = more cleavage; co-transcriptional

{"MUTATION LABEL": "A46G C31U", "self-cleavage": 0.05}
{"MUTATION LABEL": "C25U U37G", "self-cleavage": 0.96}
{"MUTATION LABEL": "G53U U37C", "self-cleavage": 0.55}
{"MUTATION LABEL": "C11G C27U", "self-cleavage": 0.06}
{"MUTATION LABEL": "A36G G47C", "self-cleavage": 0.2}
{"MUTATION LABEL": "A41U C14G", "self-cleavage": 0.3}
{"MUTATION LABEL": "C11G G42C", "self-cleavage": 0.76}
{"MUTATION LABEL": "C32A G13U", "self-cleavage": 0.01}
{"MUTATION LABEL": "A46G U12C", "self-cleavage": 0.05}
{"MUTATION LABEL": "G45U U24A", "self-cleavage": 0.04}
{"MUTATION LABEL": "G47A G54C", "self-cleavage": 0.15}
{"MUTATION LABEL": "G19U G23A", "self-cleavage": 0.07}
{"MUTATION LABEL": "A7G G42U", "self-cleavage": 0.05}
{"MUTATION LABEL": "C31U G13U", "self-cleavage": 0.05}
{"MUTATION LABEL": "A17C A7G", "self-cleavage": 0.1}
{"MUTATION LABEL": "A46G G19A", "self-cleavage": 0.05}
{"MUTATION LABEL": "G35U G49U", "self-cleavage": 0.1}
{"MUTATION LABEL": "A41U A7C", "self-cleavage": 0.03}
{"MUTATION LABEL": "G22A U18G", "self-cleavage": 0.94}
{"MUTATION LABEL": "A17U A8U", "self-cleavage": 0.42}
{"MUTATION LABEL": "C15U G51A", "self-cleavage": 0.15}
{"MUTATION LABEL": "C31G G53C", "self-cleavage": 0.04}
{"MUTATION LABEL": "A28C G48U", "self-cleavage": 0.07}
{"MUTATION LABEL": "A36G C52A", "self-cleavage": 1.01}
{"MUTATION LABEL": "A16G G49A", "self-cleavage": 0.27}
{"MUTATION LABEL": "C14A G35C", "self-cleavage": 0.05}
{"MUTATION LABEL": "A40C C11G", "self-cleavage": 0.03}
{"MUTATION LABEL": "C20A G34U", "self-cleavage": 0.64}
{"MUTATION LABEL": "C52U C9G", "self-cleavage": 0.95}
{"MUTATION LABEL": "G22C G44A", "self-cleavage": 0.07}
{"MUTATION LABEL": "A16U C27A", "self-cleavage": 0.2}
{"MUTATION LABEL": "C27U C31A", "self-cleavage": 0.02}
{"MUTATION LABEL": "G51A", "self-cleavage": 0.77}
{"MUTATION LABEL": "A41G G13U", "self-cleavage": 0.04}
{"MUTATION LABEL": "G13A G45A", "self-cleavage": 0.03}
{"MUTATION LABEL": "A16G A17C", "self-cleavage": 0.91}
{"MUTATION LABEL": "G53A U24A", "self-cleavage": 0.09}
{"MUTATION LABEL": "C32U G35U", "self-cleavage": 0.06}
{"MUTATION LABEL": "A28G U37C", "self-cleavage": 0.37}
{"MUTATION LABEL": "G51C U12G", "self-cleavage": 0.05}
{"MUTATION LABEL": "C26A G51A", "self-cleavage": 0.06}
{"MUTATION LABEL": "A29C C15A", "self-cleavage": 0.02}
{"MUTATION LABEL": "A8G G34U", "self-cleavage": 0.16}
{"MUTATION LABEL": "C9G G54A", "self-cleavage": 0.71}
{"MUTATION LABEL": "A17C G30C", "self-cleavage": 0.03}
{"MUTATION LABEL": "A10G U12A", "self-cleavage": 0.21}
